# Tested on: α-amylase
# assay-info: Hydrolysis by α-amylase derived from pig pancreas
# Assay type: in vitro ADME
# condition-details: one unit, pH 6.9, 37°C., 18 hours
metric-name: Saccharide composition of hydrolysate by α-amylase: G2 (maltose)

>>> endpoint_result("OC[C@H]1O[C@H](O[C@H]2O[C@H](CO)[C@@H](O[C@H]3O[C@H](CO)[C@@H](O[C@H]4O[C@H](CO)[C@@H](O[C@H]5O[C@H](CO)[C@@H](O)[C@H](O)[C@H]5O)[C@H](O)[C@H]4O)[C@H](O)[C@H]3O)[C@H](O)[C@H]2O)[C@H](O)[C@@H](O)[C@@H]1O")
33.0
>>> endpoint_result("OC[C@H]1O[C@H](O[C@H]2O[C@H](CO)[C@@H](O[C@H]3O[C@H](CO)[C@@H](O[C@H]4O[C@H](CO)[C@@H](O[C@H]5O[C@H](CO)[C@@H](O[C@H]6O[C@H](CO)[C@@H](O[C@H]7O[C@H](CO)[C@@H](O)[C@H](O)[C@H]7O)[C@H](O)[C@H]6O)[C@H](O)[C@H]5O)[C@H](O)[C@H]4O)[C@H](O)[C@H]3O)[C@H](O)[C@H]2O)[C@H](O)[C@@H](O)[C@@H]1O")
8.6
>>> endpoint_result("OC[C@H]1O[C@H](O[C@H]2O[C@H](CO)[C@@H](O[C@H]3O[C@H](CO)[C@@H](O)[C@H](O)[C@H]3O)[C@H](O)[C@H]2O)[C@H](O)[C@@H](O)[C@@H]1O")
0.4
>>> endpoint_result("OC[C@H]1O[C@H](O[C@H]2O[C@H](CO)[C@@H](O[C@H]3O[C@H](CO)[C@@H](O[C@H]4O[C@H](CO)[C@@H](O[C@H]5O[C@H](CO)[C@@H](O[C@H]6O[C@H](CO)[C@@H](O)[C@H](O)[C@H]6O)[C@H](O)[C@H]5O)[C@H](O)[C@H]4O)[C@H](O)[C@H]3O)[C@H](O)[C@H]2O)[C@H](O)[C@@H](O)[C@@H]1O")
7.5
>>> endpoint_result("OC[C@H]1O[C@H](O[C@H]2O[C@H](CO)[C@@H](O[C@H]3O[C@H](CO)[C@@H](O[C@H]4O[C@H](CO)[C@@H](O)[C@H](O)[C@H]4O)[C@H](O)[C@H]3O)[C@H](O)[C@H]2O)[C@H](O)[C@@H](O)[C@@H]1O")
0.8
